molecular target: PfCDPK1 (Plasmodium falciparum (isolate 3D7)); assay: biochemical
Measured parameter: EC50 (nM)
Numbers only, in nM.

> print(dat)
                                   compound  observed.value
1  CC(C)(C)n1nc(-c2ccc(NC(=O)C3CCCCC3)cc2)c2c(N)ncnc21 [Compound 64]             128
2  CC(C)n1nc(-c2ccc3cc(OCc4cccc(Cl)c4)ccc3c2)c2c(N)ncnc21 [Compound 47]            1290
3  CC(C)(C)n1nc(-c2ccc3ccccc3c2)c2c(N)ncnc21 [Compound 2]            1250
4  CC(C)n1nc(-c2ccc3cc(OCc4ccccc4Cl)ccc3c2)c2c(N)ncnc21 [Compound 46]             477
5  CC(C)(C)n1nc(-c2ccc(NC(=O)c3ccccc3)cc2)c2c(N)ncnc21 [Compound 65]             101

Give measured EC50 for every item shown.
1. CC(C)n1nc(-c2ccc3cc(OCc4ccncc4)ccc3c2)c2c(N)ncnc21 [Compound 55]
2. CCOc1ccc2cc(-c3nn(C(C)(C)C)c4ncnc(N)c34)ccc2c1 [Compound 137]
3. CC(C)COc1ccc2cc(-c3nn(C(C)(C)C)c4ncnc(N)c34)ccc2c1 [Compound 130]
4. CC(C)n1nc(-c2ccc3ccccc3c2)c2c(N)ncnc21 [Compound 7p]

Response given:
[216, 2430, 2950, 380]

* * *

biological target: TgCDPK1 (Toxoplasma gondii, UniProt Q9BJF5); assay type: biochemical; details: read-out: IC50 (μM) TgCDPK1
Sequence (Q9BJF5 1-507): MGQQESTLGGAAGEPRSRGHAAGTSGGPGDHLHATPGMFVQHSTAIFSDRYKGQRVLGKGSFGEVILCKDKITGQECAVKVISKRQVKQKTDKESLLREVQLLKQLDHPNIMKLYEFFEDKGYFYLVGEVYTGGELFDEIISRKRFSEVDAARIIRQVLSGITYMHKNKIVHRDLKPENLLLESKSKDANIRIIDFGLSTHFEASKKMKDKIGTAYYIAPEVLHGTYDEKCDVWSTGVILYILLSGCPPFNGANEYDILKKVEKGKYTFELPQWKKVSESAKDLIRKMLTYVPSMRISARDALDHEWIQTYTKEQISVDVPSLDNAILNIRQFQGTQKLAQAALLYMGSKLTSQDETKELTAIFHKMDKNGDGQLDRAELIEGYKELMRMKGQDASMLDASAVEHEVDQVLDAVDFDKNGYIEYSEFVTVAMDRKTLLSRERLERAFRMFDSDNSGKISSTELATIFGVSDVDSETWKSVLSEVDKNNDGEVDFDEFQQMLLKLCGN
// boundary case: IC50 equal to 0.1 µM maps to rule not met; strictly smaller maps to rule met

Use the examples below as a reference point.
> print(dat)
                            chemical.string    class.name
1  CC(C)n1nc(-c2cccc(OCc3ccccc3Cl)c2)c2c(N)ncnc21  rule not met
2          CC(C)n1nc(-c2cccnc2)c2c(N)ncnc21  rule not met
3  CC(C)(C)n1nc(-c2ccc(NC(=O)CCl)cc2)c2c(N)ncnc21  rule not met
4  Nc1ncnc2c1c(Cc1cccc3ccccc13)nn2Cc1c[nH]cn1  rule not met
5      CC(C)n1nc(-c2cccc(Cl)c2)c2c(N)ncnc21      rule met

Challenge: Identify whether the molecule `Nc1ncnc2c1c(Cc1cccc3ccccc13)nn2C1CCOCC1` records IC50 below 0.1 µM.
Response given: rule not met

Challenge: Identify whether the molecule `Cc1cc(-c2nn(C(C)C)c3ncnc(N)c23)ccc1F` records IC50 below 0.1 µM.
Response given: rule met

Challenge: Identify whether the molecule `CC(C)n1nc(-c2cccc3ccccc23)c2c(N)ncnc21` records IC50 below 0.1 µM.
Response given: rule not met

Challenge: Identify whether the molecule `CC(C)(C)n1nc(-c2ccc(NC(=O)C3CCCC3)cc2)c2c(N)ncnc21` records IC50 below 0.1 µM.
Response given: rule met

Challenge: Identify whether the molecule `CC(C)n1nc(-c2ccc(Cl)cc2)c2c(N)ncnc21` records IC50 below 0.1 µM.
Response given: rule met

Challenge: Identify whether the molecule `Nc1ncnc2c1c(Cc1cccc3ccccc13)nn2C1CCCC1` records IC50 below 0.1 µM.
Response given: rule not met

* * *

test: Solubility in buffers of various pH; assay type: physicochemical; conditions: buffer, pH 6.5, aqueous buffer; read-out: Experimental Solubility pH 6.5
// map solubility onto a label; ranges low: < 5 µM; medium: ≥ 5 µM and < 50 µM; high: ≥ 50 µM

> print(dat)
                                   compound  class.name
1  CCOc1ccc2cc(-c3nn(CC4CCNCC4)c4ncnc(N)c34)ccc2c1 [Compound 29]      medium

Challenge: Band for the recorded solubility of CCOc1ccc2cc(-c3nn(C(C)C)c4ncnc(N)c34)ccc2c1 [Compound 7r] ?
Response given: medium

Challenge: Band for the recorded solubility of Cc1cc(-c2nn(CC3CCNCC3)c3ncnc(N)c23)ccc1-c1ccccc1 [Compound 118] ?
Response given: medium

Challenge: Band for the recorded solubility of COc1ccc(-c2nn(CC3CCNCC3)c3ncnc(N)c23)cc1C [Compound 144] ?
Response given: high

Challenge: Band for the recorded solubility of Cn1ccc2cc(-c3nn(C(C)(C)C)c4ncnc(N)c34)ccc21 [Compound 139] ?
Response given: low

Challenge: Band for the recorded solubility of Nc1ncnc2c1c(-c1ccc3ccccc3c1)nn2CC1CCNCC1 [Compound 147] ?
Response given: high

Challenge: Band for the recorded solubility of COc1ccc2cc(-c3nn(C(C)(C)C)c4ncnc(N)c34)ccc2c1 [Compound 135] ?
Response given: low

Challenge: Band for the recorded solubility of CCCCOc1ccc2cc(-c3nn(C(C)C)c4ncnc(N)c34)ccc2c1 [Compound 42] ?
Response given: low

* * *

molecular target: TgCDPK1 (Toxoplasma gondii, UniProt Q9BJF5); type: biochemical; conditions: read-out: IC50 (μM) TgCDPK1
Measured parameter: IC50 (µM)
Numbers only, in µM.

These recorded examples may help you get a feel for the data.
> print(dat)
                                   molecule                               target.desc  measured.parameter  observed.value
1  CS(=O)(=O)N1CCC(CCn2nc(Cc3cccc4ccccc34)c3c(N)ncnc32)CC1 [Compound 5r]  TgCDPK1 (Toxoplasma gondii, UniProt Q9BJF5)                IC50           0.117
2  CC(=O)N1CCC(CCn2nc(Cc3cccc4ccccc34)c3c(N)ncnc32)CC1 [Compound 5l]  TgCDPK1 (Toxoplasma gondii, UniProt Q9BJF5)                IC50           0.104
3  NC(=O)Cn1nc(Cc2cccc3ccccc23)c2c(N)ncnc21 [Compound 5c]  TgCDPK1 (Toxoplasma gondii, UniProt Q9BJF5)                IC50            1.92
4  CC(C)c1nc(-c2ccc3ccccc3c2)c2c(N)nccn12 [Compound 8]  TgCDPK1 (Toxoplasma gondii, UniProt Q9BJF5)                IC50          0.0048

Give measured IC50 for every item shown.
1. COc1cc2ccccc2cc1-c1nn(C(C)C)c2ncnc(N)c12 [Compound 7s]
2. CC(C)n1nc(-c2cccc(-c3ccccc3)c2)c2c(N)ncnc21 [Compound 7z]
3. CC(=O)N1CCC(Cn2nc(Cc3cccc4ccccc34)c3c(N)ncnc32)CC1 [Compound 5k]
4. CCCC(=O)Nc1ccc(-c2nn(C(C)(C)C)c3ncnc(N)c23)cc1 [Compound 61]
5. CC(C)CC(=O)Nc1ccc(-c2nn(C(C)(C)C)c3ncnc(N)c23)cc1 [Compound 62]

Response given:
1. 0.863
2. 2.23
3. 0.208
4. 0.0684
5. 0.0409

Challenge: Can you share its IC50? I mean this molecule: Nc1ncnc2c1c(Cc1cccc3ccccc13)nn2Cc1ccccc1 [Compound 5e]
Response given: 1.85

* * *

target: PfCDPK4 (Plasmodium falciparum (isolate 3D7)); assay: biochemical
pEC50: −log10 of the molar value.
Rule: pEC50 of 6 or more gives Fulfilled; anything lower gives Not fulfilled.

Use the examples below as a reference point.
> print(dat)
                                   molecule     class.name
1  COC(=O)Nc1nc2ccc(C(O)c3ccccc3)cc2[nH]1 (stereo not drawn) [Compound 82]  Not fulfilled
2  CC(C)COc1ccc2cc(-c3nn(C(C)(C)C)c4ncnc(N)c34)ccc2c1 [Compound 130]  Not fulfilled
3  Nc1ncnc2c1c(-c1ccc(Cl)cc1)nn2CC1CCNCC1 [Compound 45]      Fulfilled
4  CC(C)n1nc(-c2ccc3cc(OCc4ccc(C(C)(C)C)cc4)ccc3c2)c2c(N)ncnc21 [Compound 54]      Fulfilled

Challenge: Textbook exercise: given the entry Cn1ccc2cc(-c3nc(C(C)(C)C)n4ccnc(N)c34)ccc21 [Compound 70] , state whether its pEC50 is greater than or equal to 6.
Response given: Fulfilled

Challenge: Textbook exercise: given the entry Nc1ncnc2c1c(-c1ccc3cc(OCc4ccc(Cl)cc4)ccc3c1)nn2CC1CCNCC1 [Compound 39] , state whether its pEC50 is greater than or equal to 6.
Response given: Fulfilled

Challenge: Textbook exercise: given the entry CC(C)Oc1ccc2cc(-c3nn(C(C)C)c4ncnc(N)c34)ccc2c1 [Compound 11] , state whether its pEC50 is greater than or equal to 6.
Response given: Fulfilled

* * *

target: HckKD (Homo sapiens (Human), UniProt P08631); assay: Tyrosine kinase IC50, HckKD; assay type: biochemical; conditions: Table 9
Sequence (P08631 262-515): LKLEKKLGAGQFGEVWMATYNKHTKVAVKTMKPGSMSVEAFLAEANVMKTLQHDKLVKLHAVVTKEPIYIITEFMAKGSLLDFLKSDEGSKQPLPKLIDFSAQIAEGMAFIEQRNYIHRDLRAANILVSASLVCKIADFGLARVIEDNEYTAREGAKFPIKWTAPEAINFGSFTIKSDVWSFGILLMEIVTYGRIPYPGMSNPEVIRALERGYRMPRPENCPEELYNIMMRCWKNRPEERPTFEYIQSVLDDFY
Could you please report measured IC50 for the items listed next?

These recorded examples may help you get a feel for the data.
> print(dat)
                                   molecule  measured.parameter  observed.value
1  COc1ccc2cc(-c3nn(CC4CCNCC4)c4ncnc(N)c34)ccc2c1 [Compound 28]                IC50         > 10 µM
2  CC(C)Oc1ccc2cc(-c3nn(CC4CCNCC4)c4ncnc(N)c34)ccc2c1 [Compound 32]                IC50         > 10 µM

Challenge: Can you share its IC50? I mean this molecule: C=CCOc1ccc2cc(-c3nn(CC4CCNCC4)c4ncnc(N)c34)ccc2c1 [Compound 36]
Response given: > 10 µM
